Assay: Solubility
Format: physicochemical
Conditions: simulated gastric fluid (SGF), simulated gastric fluid; read-out: Solubility in SGF
Protocol: Particularly relevant are water solubility, partition coefficient and stability in gastric and intestinal fluids. […] The solubility in water of a orally administered prodrug should be greater than at least about 0.1 mg/mL for optimal formulation and the half-lives in simulated gastric fluid and simulated intestinal fluid should be 1-2 h and 2-4 h respectively to allow sufficient time to traverse the stomach and be absorbed in the intestine.
Recorded Endpoint: solubility
Please give the number followed by its unit.

CC(C)C(=O)OC[C@H]1O[C@@H](n2ccc(N)nc2=O)[C@](C)(F)[C@@H]1OC(=O)C(C)C :: 13.3 mg/mL

The recorded solubility for entry `CC(C)COC(=O)OC[C@H]1O[C@@H](n2ccc(N)nc2=O)[C@](C)(F)[C@@H]1OC(=O)OCC(C)C` equals 0.16 mg/mL

The recorded solubility for entry `CCC(=O)OC[C@H]1O[C@@H](n2ccc(N)nc2=O)[C@](C)(F)[C@@H]1OC(=O)CC` equals 13.6 mg/mL
